- System: HCT 116_JH_p21−/−
- experiment notes: Antiproliferative assay (ArrayScan VTi)
- Format: cell-based
- setup conditions: Homo sapiens; HCT 116_JH_p21−/− (Colon); 24 h treatment, then 48 h without compound
assay metric: pEC50
# pEC50 is unitless: minus log10 of the molar concentration; print number only

q: Fill in: pEC50 of Cc1csc(-c2nnc(Nc3ccc(Oc4ncccc4-c4ccnc(N)n4)cc3)c3ccccc23)c1 is ___
a: 9.00

====

- Test system: HCT15
- experiment notes: Antiproliferative assay (ArrayScan VTi)
- Format: cell-based
- setup conditions: Homo sapiens, HCT-15; HCT15* (Colon), paclitaxel-resistant; 24 h treatment, then 48 h without compound
assay metric: EC50 (nM)
Note: unit nM is implicit; provide only the numeric part.

q: Fill in: EC50 of Cc1csc(-c2nnc(Nc3ccc(Oc4ncccc4-c4ccnc(N)n4)cc3)c3ccccc23)c1 is ___
a: 2
